Target: UniProt P28335
Sequence (P28335 33-458): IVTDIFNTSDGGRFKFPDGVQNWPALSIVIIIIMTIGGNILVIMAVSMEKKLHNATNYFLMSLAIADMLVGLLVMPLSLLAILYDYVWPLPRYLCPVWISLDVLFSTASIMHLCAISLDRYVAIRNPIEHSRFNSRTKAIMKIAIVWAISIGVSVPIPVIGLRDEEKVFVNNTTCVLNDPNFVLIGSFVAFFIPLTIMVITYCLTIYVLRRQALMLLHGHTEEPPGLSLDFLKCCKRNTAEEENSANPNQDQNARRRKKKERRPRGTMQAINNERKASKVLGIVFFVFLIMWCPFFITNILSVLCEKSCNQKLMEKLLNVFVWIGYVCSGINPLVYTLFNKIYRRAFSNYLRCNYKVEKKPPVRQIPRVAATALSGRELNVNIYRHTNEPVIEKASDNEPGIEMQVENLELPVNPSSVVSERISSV
Assay: Human 5-HT2C functional assay in CHO-K1 cells (calcium flux, FLIPR)
Type: cell-based
Set-up: expressed in transfected cells; host or cells: CHO-K1 cells
Conditions: CHO-K1 cells; percentage relative to the effect of serotonin; read-out: Emax (%), 5-HT2c Agonist Activity
endpoint name: Emax

{"compound": "O=C1C[C@H]2CNCCN2c2cc(OCCc3cccc(C(F)(F)F)c3)ccc2N1", "target or test system": "UniProt P28335", "Emax": "110%"}

Data request, read-out Emax, for C1=C(c2ccc3c(c2)N2CCNC[C@@H]2CCO3)CCOC1
> 120%

// next record CC(C)Oc1cccc(-c2ccc3c(c2)N2CCNCC2CC(=O)N3)c1 (stereo not drawn)
> 120%

---

Biological target: 5HT2B receptors (Homo sapiens, UniProt P41595)
Construct: expressed in transfected cells; host or cells: CHO-K1 cells
Sequence (P41595 whole entry): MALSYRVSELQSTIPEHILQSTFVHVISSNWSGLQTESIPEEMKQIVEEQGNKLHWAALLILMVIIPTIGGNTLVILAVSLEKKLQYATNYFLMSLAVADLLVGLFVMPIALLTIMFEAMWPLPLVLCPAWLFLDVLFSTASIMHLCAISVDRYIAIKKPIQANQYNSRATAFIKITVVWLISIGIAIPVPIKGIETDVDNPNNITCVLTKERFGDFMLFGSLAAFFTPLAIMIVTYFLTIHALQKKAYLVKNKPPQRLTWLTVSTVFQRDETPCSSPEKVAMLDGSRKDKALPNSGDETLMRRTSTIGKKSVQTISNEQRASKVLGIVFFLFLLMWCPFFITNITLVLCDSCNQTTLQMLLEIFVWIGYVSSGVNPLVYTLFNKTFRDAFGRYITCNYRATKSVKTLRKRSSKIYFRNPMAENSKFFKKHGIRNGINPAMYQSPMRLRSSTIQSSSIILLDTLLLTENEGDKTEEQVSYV
Assay: Human 5-HT2B functional assay in CHO-K1 cells (calcium flux, FLIPR)
Assay type: cell-based
Conditions: CHO-K1 cells over-expressing 5HT2B, calcium flux; read-out: EC50 (μM), 5-HT2B Agonist Activity
endpoint name: EC50 (µM)

1 = FCCN1CCN2c3cccc(F)c3OCC[C@H]2C1 [Example 245]
2 = O=C1CC2CNCCN2c2cc(-c3ccccc3-c3ccccc3)ccc2N1 (stereo not shown) [Example 64]
I'd appreciate it if you could identify which of 1 and 2 has the greater EC50. Answer = label.
2

---

Molecular target: 5HT2B receptors (Homo sapiens, UniProt P41595)
Construct: expressed in transfected cells; host or cells: CHO-K1 cells
Test: Human 5-HT2B functional assay in CHO-K1 cells (calcium flux, FLIPR)
Assay type: cell-based
endpoint name: pEC50
Please treat pEC50 as minus the base-10 logarithm of the molar concentration.

Solved entries (count: 3):
{"compound": "C[C@@H]1CN2c3ccccc3OCC[C@H]2CN1", "recorded result": 6.30}
{"compound": "Brc1cccc2c1OCC[C@H]1CNCCN21", "recorded result": 8.00}
{"compound": "Fc1ccc2c(c1)OCC[C@H]1CNCCN21", "recorded result": 7.00}

Data request, read-out pEC50, for O=C1C[C@H]2CNCCN2c2cc(Cl)c(Cl)cc2N1
8.52

// next record Fc1cccc2c1N1CCNC[C@@H]1CCO2
7.30

// next record [2H]c1cc2c(cc1[2H])N1CCNC[C@@H]1CCO2
6.70

// next record O=C1NCC2CNCCN2c2ccccc21 (centres unmarked)
6.52

// next record Cc1ccc2c(c1)N1CCNC[C@@H]1CC(=O)N2
8.10

---

Biological target: 5HT2B receptors (Homo sapiens)
Construct: expressed in transfected cells; host or cells: CHO-K1 cells
Experiment: Human 5-HT2B functional assay in CHO-K1 cells (calcium flux, FLIPR)
Type: cell-based
endpoint name: pEC50
Please treat pEC50 as minus the base-10 logarithm of the molar concentration.

Solved entries (count: 5):
{"compound": "Cc1c(F)ccc2c1OCC[C@H]1CNCCN21", "recorded result": 7.52}
{"compound": "Fc1ccc2c(c1)N1CCNC[C@H]1CCO2", "recorded result": 8.15}
{"compound": "Fc1cccc2c1OCC[C@@H]1CNCCN21", "recorded result": 7.40}
{"compound": "Fc1cccc2c1OCC[C@H]1CNCCN21", "recorded result": 7.22}
{"compound": "Cc1cccc2c1N1CCNCC1CC(=O)N2 (stereo not drawn)", "recorded result": 5.52}

Data request, read-out pEC50, for Fc1ccc2c(c1)OCC[C@@H]1CNCCN21
7.22

meta.source: patent US8546377B2
